The measurements presented in this section are drawn from PubChem BioAssay (NCI).

Field: TGI. Provide a value for each of the compounds that follow.
test system: SK-OV-3 ovarian; test: NCI tumour cell line growth inhibition, 48 h

Sample answers from the record:
[[record]]
compound = "O=C1Nc2ccccc2[C@]12C[C@H]2c1ccccn1"
assay_target = "SK-OV-3 ovarian"
result = "> 100 µM"

[[record]]
compound = "CO[C@@](c1ccccc1)(c1nc(C#N)c(N)o1)C(F)(F)F"
assay_target = "SK-OV-3 ovarian"
result = "> 100 µM"


Each of the following entries comes with a recorded value; kindly state TGI for each.
1. CN(C)c1ccc2nc3c(C(=O)O)cc(=O)c(O)c-3oc2c1
2. CC(=O)n1nc(-c2nc3ccccc3nc2Cl)cc1Cl
3. COC(=O)C1=C(c2cc(OC)c(OC)c(OC)c2)OC(c2cc(OC)c(OC)c(OC)c2)C1COC(C)=O (centres undefined)
4. CCCCOP(=O)(OCCCC)/C(C#N)=C/c1ccco1
5. C=C(C)[C@@H]1CC[C@@H](C)[C@](O)([C@@H]2C[C@@H]([C@H](COC(=O)c3ccccc3)OC(=O)c3ccccc3)OC2=O)C1
6. CC1(C)OC(=O)C(C)(C)OC1=O
7. CCOC(=O)c1nc2ccc(Cl)cc2c2c1CCO2

1. > 100 µM
2. > 77.7 µM
3. > 100 µM
4. > 100 µM
5. > 100 µM
6. > 100 µM
7. > 100 µM

Record TGI for all entries; do not skip any.
1. C=CC[Se]C(=O)Cc1c(C)n(C(=O)c2ccc(Cl)cc2)c2ccc(OC)cc12
2. CC1=CCC[C@@](C)(O)[C@@H]2C[C@H]3C(CSc4ccccc4)C(=O)O[C@H]3[C@@H](O2)[C@H](C)CCC1 (some centres undefined)
3. CC(C)=CCC/C(C)=C/CC/C(=C/COP(=O)(OCc1ccc([N+](=O)[O-])o1)N(C)CCCCCl)CC=C(C)C (centres undefined)
4. COc1ccc(/C(Cl)=C(\C=O)c2ccc(Br)cc2)cc1OC
5. O=C(O)c1ccc(N=Nc2cc(S(=O)(=O)O)c3cccnc3c2O)cc1

1: 3.1 µM; 2: 37.9 µM; 3: 55.8 µM; 4: > 100 µM; 5: > 100 µM

---

Provide the recorded TGI for the entries that follow.
tested on: HCT-15 colon; assay: NCI tumour cell line growth inhibition, 48 h

[[record]]
compound = "O=C(c1ccco1)c1c(C(F)(F)F)nc2cc(C(F)(F)F)ccc2[n+]1[O-]"
result = "> 100 µM"

[[record]]
compound = "c1ccc2c[n+](CCCCCCCCCC[n+]3ccc4ccccc4c3)ccc2c1"
result = "> 10 µM"

[[record]]
compound = "CCOC(=O)C1=C(C)N(C)C(=S)NC1c1cccc(O)c1 (stereo not given)"
result = "> 100 µM"

[[record]]
compound = "COc1ccc2c(c1OC)-c1c(c3ccc([N+](=O)[O-])cc3c(=O)n1CCCN=[N+]=[N-])C2=O"
result = "> 100 µM"


Consider now this further compound.
Requested read-out: TGI. Entry: `CCN(Cc1nc2cc(C(F)(F)F)ccc2nc1-c1ccccc1)c1ccc(OC)c(OC)c1`
34.5 µM

---

tested on: COLO 205 colon; test: NCI tumour cell line growth inhibition, 48 h
Assay readout: GI50

Illustrative cases are given below, each with its answer.
[[record]]
molecule = "Oc1ccc(/C=N/Nc2nc3ccccc3s2)c(O)c1"
result = "3.11 µM"

[[record]]
molecule = "CCCCCCCCCCCCOC1C(C(COC2OC(C(O)CN3CCCCC3)C3OC(C)(C)OC23)NC(=O)Nc2ccccc2)OC2OC(C)(C)OC21 (stereo not given)"
result = "3.86 µM"

[[record]]
molecule = "CC[C@H](Nc1nc(N)nc(N)c1Cl)c1nc2cccc(NCc3ccc(C(=O)NO)cc3)c2c(=O)n1-c1ccccc1"
result = "2.24 µM"


Give measured GI50 for every item shown.
1. O=C1C(Cl)=C(Nc2cccc(C(F)(F)F)c2)C(=O)N1Cc1ccccc1Cl
2. O=C1/C(=C/c2ccc([N+](=O)[O-])s2)Oc2ccccc21

1. 12 µM
2. 1.26 µM
